- System: MDA-MB-435 melanoma
- Assay name: NCI-60 one-dose screen, 48 h (100 = growth as untreated, 0 = no growth, -100 = all killed)
- Condition: 10 µM unless noted
Compounds without any hit were thinned out: in the full panel of roughly 83,000, 20% have a hit.
For each of the compounds below, state its growth.
Provide the reading as a plain figure in %.

Bench note, MDA-MB-435 melanoma: entry "CC(=O)O[C@]1(C)C[C@H](O)[C@]2(O)C=CO[C@H](O[C@@H]3O[C@H](CO)[C@@H](O)[C@H](O)[C@H]3O)[C@@H]21" , its growth = 102

So the reported growth for N#CC1(C#N)C(c2cccs2)NC(c2cccs2)C1(C#N)C#N (centres undefined) , on MDA-MB-435 melanoma, turned out to be 107

MDA-MB-435 melanoma growth of "Cn1cc(-c2[nH]c3cc(NC(=O)[C@H](N)C4CCCCC4)cc4c3c2C=NNC4=O)cn1" is -33.9

Item "NC(=O)c1c(OCc2c(F)cc(Br)cc2F)nsc1NC(=O)NCCCCN1CCCC1" was tested on MDA-MB-435 melanoma; the reported growth is -58.9

Reported growth (MDA-MB-435 melanoma) for entry "Clc1ccc(/C=C/c2cc(N3CCOCC3)c3cc(Cl)c(Cl)cc3n2)cc1" is 91

Sample "C=CC[n+]1c(/C=C2\Sc3ccccc3N2C)sc(-c2ccccc2)c1-c1ccccc1" , system: MDA-MB-435 melanoma. Its growth is 5.39

growth of "CCN1CCN(c2cc(C)nc(N(CCCNc3ccnc4cc(Cl)ccc34)Cc3cccs3)n2)CC1" , assay on MDA-MB-435 melanoma, is -79.8

Bench note, MDA-MB-435 melanoma: entry COc1ccc(-c2cc3c(oc2=O)-c2ccccc2OC3OC(C)=O)cc1 (centres undefined) , its growth = 110

Item "COc1ccc(-c2ccc3c(N4CCOC[C@@H]4C)nc(N4CCOC[C@@H]4C)nc3n2)cc1CO" ; assay system MDA-MB-435 melanoma; growth reported as -14.1

---

- Tested on: COLO 205 colon
- Assay name: NCI-60 one-dose screen, 48 h
- Condition: 10 µM unless noted
Compounds without any hit were thinned out: in the full panel of roughly 83,000, 20% have a hit. Active and inactive are the calls of the source. How the source made its calls: active means growth percent below 10; inactive means the rest.
Pick one and only one: active, inactive

Per the records of this test, what outcome belongs to "C=CC(=O)N1CCC(Oc2cc3c(Nc4ccc(Cl)c(Cl)c4F)ncnc3cc2OC)CC1" ? inactive

# fetch the recorded call for "COc1ncc(-c2ccc3nccc(-c4ccnnc4)c3c2)cc1NS(=O)(=O)c1ccc(F)cc1F" here active

So what was the verdict on "COc1cccc(NC(=O)Nc2ccc(Nc3ncnc4sc5c(c34)CCN(C(=O)CCl)C5)cc2)c1" in this test? inactive

Recorded test outcome, item "O=C(Cc1ccccc1)Nc1nnc(NC2CCN(c3nnc(NC(=O)Cc4ccccc4)s3)CC2)s1" inactive

Outcome logged for "CC(C)OP(=O)(CCC(=O)c1c[nH]c2ccccc12)OC(C)C" in this assay: inactive

Each compound tested received a call. Report the one for "C=C1C(=O)O[C@H]2[C@H]1CC/C(CNC(=O)c1cc3cc(OC)ccc3[nH]1)=C\CC[C@@]1(C)O[C@@H]21" . active

Hi team, can someone confirm the assay call for "O=C(c1ccc(/C=C/c2n[nH]c3ccccc23)cc1)N1CCNCC1" ? active

So what was the verdict on "Cc1cc(N2CCCC2)nc(N(CCCNc2ccnc3cc(Cl)ccc23)Cc2ccc3c(c2)OCO3)n1" in this test? active

Hi, sorry to bother you, what did the test record for "CCN1/C(=C/C=C/c2n(-c3ccccc3)c3ccc(-c4nc5ccccc5s4)cc3[n+]2CC)N(c2ccccc2)c2ccc(-c3nc4ccccc4s3)cc21" ? active

Called result for "Nc1c2c(c(O)c3c1=C(CO)C=N3)=NCCS2" active

In this assay, the call recorded for "NN1C(=O)CSC1=S" was what? inactive

What is the recorded call for this compound in the test? "Oc1ccc(C(c2ccc(O)cc2)C(Cl)(Cl)Cl)cc1" inactive

Identify the outcome logged in this assay for the compound shown: "C=CC(=O)Nc1cc2c(Nc3ccc(F)c(Cl)c3)ncnc2cc1C#CC(C)(C)N1CCN(C)CC1" active

Answer briefly: the call reported for COC(=O)CC[C@@H](C)[C@H]1CC[C@H]2C3CC[C@@H]4C[C@@H]5CC[C@]4(C)[C@@]3(O5)[C@H](Br)[C@@H](Br)[C@]12C (some centres undefined) in this assay. inactive

Could you please tell me the result logged for "CC(C)[C@@H]1CC[C@@H]2[C@@H]1[C@H](OC(=O)/C=C/c1ccccc1)[C@]1(C(C)C)C[C@@H](OC(=O)CO)[C@@]2(C)O1" in this assay? inactive

Could you check what this test reported for "C[C@@H](Oc1cc(-n2cnc3ccc(CN4CCN(C)CC4)cc32)sc1C(N)=O)c1ccccc1C(F)(F)F" ? active

Hey, what did the test say about "Cn1ncc(Cl)c1-c1cc(C(=O)N[C@H](CN)Cc2ccc(F)c(F)c2)oc1Cl" ? active

Per the assay record, what outcome was assigned to "CC(C)c1ccc(/C=N/Nc2nc3ccccc3s2)cc1" ? inactive

What did the test return for "O=C(Cc1ccc(-c2ccc(OCCN3CCOCC3)cc2)cn1)NCc1ccccc1" ? active
